Hello, the source for this data is paper PMC6934184, in case you need it.

Target: PI3K-C2γ (Homo sapiens)
Sequence (O75747 1-1486): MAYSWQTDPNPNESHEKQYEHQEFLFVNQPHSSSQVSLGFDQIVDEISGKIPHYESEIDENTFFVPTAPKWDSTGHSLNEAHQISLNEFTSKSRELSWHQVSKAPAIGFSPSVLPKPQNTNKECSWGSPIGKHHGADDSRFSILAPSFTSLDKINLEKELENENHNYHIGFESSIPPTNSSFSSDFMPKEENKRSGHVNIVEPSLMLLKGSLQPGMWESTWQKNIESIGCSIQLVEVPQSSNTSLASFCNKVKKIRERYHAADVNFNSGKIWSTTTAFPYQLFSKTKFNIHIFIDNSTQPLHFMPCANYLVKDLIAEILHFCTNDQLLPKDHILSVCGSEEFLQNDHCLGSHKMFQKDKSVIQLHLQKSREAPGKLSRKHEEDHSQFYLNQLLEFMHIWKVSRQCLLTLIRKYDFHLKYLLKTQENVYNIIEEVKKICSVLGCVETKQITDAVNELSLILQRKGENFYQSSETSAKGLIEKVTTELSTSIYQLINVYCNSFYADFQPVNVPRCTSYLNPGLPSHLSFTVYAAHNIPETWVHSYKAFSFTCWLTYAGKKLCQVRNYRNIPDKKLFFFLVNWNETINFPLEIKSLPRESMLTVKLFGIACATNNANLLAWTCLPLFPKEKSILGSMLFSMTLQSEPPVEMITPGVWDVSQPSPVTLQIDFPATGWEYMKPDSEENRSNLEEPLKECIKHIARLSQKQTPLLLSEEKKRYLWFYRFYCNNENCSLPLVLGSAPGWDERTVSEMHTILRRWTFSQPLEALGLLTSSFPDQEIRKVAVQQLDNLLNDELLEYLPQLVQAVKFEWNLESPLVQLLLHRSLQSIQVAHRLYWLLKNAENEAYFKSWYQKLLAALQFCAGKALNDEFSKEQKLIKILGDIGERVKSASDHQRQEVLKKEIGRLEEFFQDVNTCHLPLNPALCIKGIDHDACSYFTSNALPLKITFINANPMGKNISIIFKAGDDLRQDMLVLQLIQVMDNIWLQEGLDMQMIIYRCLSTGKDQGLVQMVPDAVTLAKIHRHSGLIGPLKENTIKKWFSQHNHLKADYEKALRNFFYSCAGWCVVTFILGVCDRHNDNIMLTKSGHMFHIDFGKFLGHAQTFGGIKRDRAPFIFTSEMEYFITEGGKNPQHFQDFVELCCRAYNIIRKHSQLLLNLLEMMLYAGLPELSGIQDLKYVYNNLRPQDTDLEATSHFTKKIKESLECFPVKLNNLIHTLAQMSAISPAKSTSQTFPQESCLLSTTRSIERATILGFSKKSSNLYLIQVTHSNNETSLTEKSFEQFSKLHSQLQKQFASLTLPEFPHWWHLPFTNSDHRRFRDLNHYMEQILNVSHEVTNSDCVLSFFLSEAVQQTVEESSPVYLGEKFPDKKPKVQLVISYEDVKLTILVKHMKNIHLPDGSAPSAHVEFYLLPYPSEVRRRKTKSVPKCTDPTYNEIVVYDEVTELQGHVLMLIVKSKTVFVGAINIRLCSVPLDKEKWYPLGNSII
pIC50: −log10 of the molar value.

givenSmiles	pIC50
CN(C(=O)CN1CCOCC1)c1ccc2sc3c(-c4cccc5c(=O)cc(N6CC7CCC(C6)O7)oc45)cccc3c2c1	< 5.00

###

Target: ATR (Homo sapiens, UniProt Q13535)
Sequence (Q13535 whole entry): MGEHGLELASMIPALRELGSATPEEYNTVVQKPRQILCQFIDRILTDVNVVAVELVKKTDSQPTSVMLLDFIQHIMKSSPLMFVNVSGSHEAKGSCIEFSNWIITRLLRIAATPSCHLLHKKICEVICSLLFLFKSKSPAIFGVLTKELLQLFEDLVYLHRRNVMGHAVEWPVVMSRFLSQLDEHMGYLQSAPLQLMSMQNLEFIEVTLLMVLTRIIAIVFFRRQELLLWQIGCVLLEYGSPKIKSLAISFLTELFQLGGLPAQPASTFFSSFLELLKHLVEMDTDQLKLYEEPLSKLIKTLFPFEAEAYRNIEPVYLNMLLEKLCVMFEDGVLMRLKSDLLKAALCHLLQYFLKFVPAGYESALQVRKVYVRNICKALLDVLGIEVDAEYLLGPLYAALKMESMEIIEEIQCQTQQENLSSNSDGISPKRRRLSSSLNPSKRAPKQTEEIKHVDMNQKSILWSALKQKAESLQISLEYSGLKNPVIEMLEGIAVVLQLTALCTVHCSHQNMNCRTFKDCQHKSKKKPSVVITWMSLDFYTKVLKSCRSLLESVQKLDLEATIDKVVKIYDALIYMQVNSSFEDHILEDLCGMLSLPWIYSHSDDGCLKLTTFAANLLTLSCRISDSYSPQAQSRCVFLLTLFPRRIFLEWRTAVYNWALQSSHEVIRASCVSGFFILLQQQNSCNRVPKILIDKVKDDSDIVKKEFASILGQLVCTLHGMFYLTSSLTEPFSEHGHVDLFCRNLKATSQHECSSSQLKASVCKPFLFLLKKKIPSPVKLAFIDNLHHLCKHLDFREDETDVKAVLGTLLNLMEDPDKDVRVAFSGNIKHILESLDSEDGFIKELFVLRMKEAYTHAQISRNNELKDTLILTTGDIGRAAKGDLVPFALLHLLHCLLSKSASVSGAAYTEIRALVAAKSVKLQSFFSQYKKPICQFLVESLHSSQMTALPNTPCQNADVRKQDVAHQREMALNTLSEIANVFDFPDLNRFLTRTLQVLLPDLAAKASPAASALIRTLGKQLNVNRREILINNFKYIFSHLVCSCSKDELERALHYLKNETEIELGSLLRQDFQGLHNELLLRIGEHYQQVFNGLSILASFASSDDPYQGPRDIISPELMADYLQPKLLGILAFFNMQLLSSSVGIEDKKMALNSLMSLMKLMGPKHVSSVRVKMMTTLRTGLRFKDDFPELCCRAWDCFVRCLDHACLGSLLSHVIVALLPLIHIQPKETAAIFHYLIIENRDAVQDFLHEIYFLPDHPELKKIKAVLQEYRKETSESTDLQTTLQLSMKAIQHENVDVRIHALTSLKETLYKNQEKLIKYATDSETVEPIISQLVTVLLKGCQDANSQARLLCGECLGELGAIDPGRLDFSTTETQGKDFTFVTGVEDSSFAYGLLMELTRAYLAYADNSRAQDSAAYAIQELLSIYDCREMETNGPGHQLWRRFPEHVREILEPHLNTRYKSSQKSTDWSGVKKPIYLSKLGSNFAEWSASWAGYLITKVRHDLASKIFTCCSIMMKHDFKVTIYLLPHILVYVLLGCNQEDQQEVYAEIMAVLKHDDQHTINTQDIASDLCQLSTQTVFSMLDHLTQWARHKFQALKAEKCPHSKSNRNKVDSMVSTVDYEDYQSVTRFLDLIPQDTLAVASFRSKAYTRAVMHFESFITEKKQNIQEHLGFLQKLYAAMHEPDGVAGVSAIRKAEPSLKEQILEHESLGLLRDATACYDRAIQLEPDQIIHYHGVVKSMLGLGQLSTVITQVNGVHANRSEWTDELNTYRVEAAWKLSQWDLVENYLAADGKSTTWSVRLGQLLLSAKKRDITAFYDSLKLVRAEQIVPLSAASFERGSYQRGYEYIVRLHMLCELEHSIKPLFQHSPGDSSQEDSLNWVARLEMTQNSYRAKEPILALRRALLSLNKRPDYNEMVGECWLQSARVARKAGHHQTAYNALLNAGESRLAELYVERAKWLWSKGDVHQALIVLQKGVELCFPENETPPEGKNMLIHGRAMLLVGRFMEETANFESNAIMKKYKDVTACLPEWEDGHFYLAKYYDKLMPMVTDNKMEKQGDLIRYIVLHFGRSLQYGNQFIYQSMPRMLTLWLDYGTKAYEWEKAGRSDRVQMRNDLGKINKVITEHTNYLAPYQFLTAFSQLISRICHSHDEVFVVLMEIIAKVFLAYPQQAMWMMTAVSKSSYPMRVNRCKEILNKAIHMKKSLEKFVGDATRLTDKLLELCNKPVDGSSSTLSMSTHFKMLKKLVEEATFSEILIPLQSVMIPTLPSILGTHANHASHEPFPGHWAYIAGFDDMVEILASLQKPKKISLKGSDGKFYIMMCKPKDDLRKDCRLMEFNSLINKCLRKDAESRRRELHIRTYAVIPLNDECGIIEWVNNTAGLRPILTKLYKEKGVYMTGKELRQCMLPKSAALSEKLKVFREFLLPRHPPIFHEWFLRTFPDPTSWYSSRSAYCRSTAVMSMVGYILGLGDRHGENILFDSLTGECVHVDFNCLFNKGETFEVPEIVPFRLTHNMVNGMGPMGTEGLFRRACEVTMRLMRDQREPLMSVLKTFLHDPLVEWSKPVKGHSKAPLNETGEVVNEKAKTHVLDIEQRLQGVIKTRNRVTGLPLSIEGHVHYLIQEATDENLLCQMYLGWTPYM
Sequence (Q8WXE1 whole entry partner): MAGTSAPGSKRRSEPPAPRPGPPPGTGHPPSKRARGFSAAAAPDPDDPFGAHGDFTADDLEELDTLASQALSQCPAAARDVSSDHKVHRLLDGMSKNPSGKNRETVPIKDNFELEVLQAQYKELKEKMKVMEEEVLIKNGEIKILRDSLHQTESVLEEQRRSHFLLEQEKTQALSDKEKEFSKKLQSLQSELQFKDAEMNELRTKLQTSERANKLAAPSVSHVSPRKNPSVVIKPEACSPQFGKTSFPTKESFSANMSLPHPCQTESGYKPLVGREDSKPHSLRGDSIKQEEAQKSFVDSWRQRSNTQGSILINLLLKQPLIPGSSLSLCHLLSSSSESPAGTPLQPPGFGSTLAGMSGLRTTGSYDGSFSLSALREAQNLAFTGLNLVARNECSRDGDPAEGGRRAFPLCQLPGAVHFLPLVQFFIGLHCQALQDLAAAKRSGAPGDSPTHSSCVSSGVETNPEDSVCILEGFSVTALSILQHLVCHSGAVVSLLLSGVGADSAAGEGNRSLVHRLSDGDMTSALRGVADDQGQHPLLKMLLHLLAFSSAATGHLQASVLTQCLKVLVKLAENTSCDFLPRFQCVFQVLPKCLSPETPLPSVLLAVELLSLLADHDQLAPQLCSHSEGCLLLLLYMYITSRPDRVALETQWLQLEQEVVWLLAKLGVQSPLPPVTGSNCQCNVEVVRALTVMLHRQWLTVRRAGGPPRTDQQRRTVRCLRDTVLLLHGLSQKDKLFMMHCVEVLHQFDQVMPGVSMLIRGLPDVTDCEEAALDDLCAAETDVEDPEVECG
pIC50: −log10 of the molar value.

compound	subjectOfTest	pIC50
CN(C(=O)CN1CCOCC1)c1ccc2sc3c(-c4cccc5c(=O)cc(N6CC7CCC(C6)O7)oc45)cccc3c2c1 [NU5455]	ATR (Homo sapiens, UniProt Q13535)	< 5.00

###

Molecular target: DNA-PK (Homo sapiens, UniProt P78527)
Assay: SelectScreen Profiling IC50
Format: biochemical
Conditions: cell-free; ATP Km app; mean ± SEM, n=4-7; read-out: NU5455 IC50

compound	IC50
CN(C(=O)CN1CCOCC1)c1ccc2sc3c(-c4cccc5c(=O)cc(N6CC7CCC(C6)O7)oc45)cccc3c2c1 [NU5455]	8.2 nM
